test: chemical genetic growth profiling, strain panel (AID 1159580);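 further: tested at 20 µM; growth read once vehicle control cultures reached saturation at 30 °C; 1 = growth at the plate median or of vehicle wells; lower values mean less growth of the strain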
testConditions: S. cerevisiae deletion strains, growth OD, locus YLR258W, strain gsy2, active compounds read low
Screen size: about 5,500 compounds; about 2,000 (36%) were called active. Roughly 18% stayed inconclusive and do not appear here. Some of the results follow.
measuredAttribute: normalized growth
Field format: numeric only.

molecule=O=c1[nH]c2ccccc2n1C1CCN(CCCC(c2ccc(F)cc2)c2ccc(F)cc2)CC1 measuredattribute="normalized growth" observed=0.981
molecule=O=c1[nH]c2ccccc2n1CCCN1CCC(n2c(=O)[nH]c3cc(Cl)ccc32)CC1 measuredattribute="normalized growth" observed=0.998
molecule=Nc1ncnc2c1ncn2[C@@H]1O[C@H](CO)[C@@H](O)[C@@H]1O measuredattribute="normalized growth" observed=1.01
molecule="COc1cc(OC)c2c(c1Cl)OC1(C2=O)C(O)=CC(=O)CC1C (stereo unspecified)" measuredattribute="normalized growth" observed=1
molecule=O=C1c2ccccc2C(=O)c2c(O)c(O)cc(O)c21 measuredattribute="normalized growth" observed=0.455
molecule=O=c1ccc2ccc(O)c(O)c2o1 measuredattribute="normalized growth" observed=1.01

Would you kindly share the measured normalized growth for CCCCCN=C(N)N/N=C\c1c[nH]c2ccc(OC)cc12 ?
0.995

So what does the record say about normalized growth for O=C1c2ccc(O)c(O)c2C(=O)c2c(O)ccc(O)c21 ?
0.685

Could you share which normalized growth value was measured for O=C(/C=C/C(=O)Oc1ccccc1C(=O)O)Oc1ccccc1C(=O)O ?
0.988

What value of normalized growth has been recorded for this entry: Cc1cc(O)c2c(c1O)C(=O)c1c(O)cc(C)c(O)c1C2=O
0.977

Need normalized growth, item N#C/C(=C\c1ccc(O)cc1)C(=O)O
1

Origin of measurements: PubChem BioAssay AID1159580
